tested on: Plasmodium berghei; experiment: Luciferase/luciferin-expressing antifolate-resistant parasites were used to infect a culture of HepG2 cells that were pre-incubated with compounds. Infected hepatocytes emit light due to the luciferase reaction. Assay results are presented as the percent inhibition of light emission compared to control. […]; assay type: functional; details: sporozoite, HEPG2TOX_HILL_SLOPE 1.14, HEPG2TOX_R_SQUARED 0.985, PBLUC_HILL_SLOPE 1.79, PBLUC_R_SQUARED 0.146, read-out: LUCIFERASE INFECTION ASSAY - IC50
Assay readout: IC50 (µM)

Compound	System tested	Readout number
O=C(C1=NNCC1c1ccccc1)c1ccc2ccccc2c1 (stereo unspecified)	Plasmodium berghei	5.28

* * *

tested on: Plasmodium berghei; experiment: Luciferase/luciferin-expressing antifolate-resistant parasites were used to infect a culture of HepG2 cells that were pre-incubated with compounds. Infected hepatocytes emit light due to the luciferase reaction. Assay results are presented as the percent inhibition of light emission compared to control. […]; assay type: functional; settings: sporozoite, HEPG2TOX_HILL_SLOPE 1.65, HEPG2TOX_R_SQUARED 0.7, PBLUC_HILL_SLOPE 2.41, 3.47, PBLUC_R_SQUARED 0.702, 0.681, read-out: LUCIFERASE INFECTION ASSAY - IC50

Record smiles	IC50
Cc1nn(Cc2ccccc2)c(Cl)c1C(=O)Nc1nnc(-c2ccccc2)o1	1840 nM

* * *

system: Plasmodium berghei; assay: Luciferase/luciferin-expressing antifolate-resistant parasites were used to infect a culture of HepG2 cells that were pre-incubated with compounds. Infected hepatocytes emit light due to the luciferase reaction. Assay results are presented as the percent inhibition of light emission compared to control. […]; type: functional; details: sporozoite, HEPG2TOX_HILL_SLOPE 6.76, HEPG2TOX_R_SQUARED 0.162, read-out: LUCIFERASE INFECTION ASSAY - IC50
pIC50: −log10 of the molar value.

Record smiles	pIC50
COc1ccc(CCNc2nc(C)nc3sc(-c4ccccc4)cc23)cc1OC	< 5.00

* * *

system: Plasmodium berghei; test: Luciferase/luciferin-expressing antifolate-resistant parasites were used to infect a culture of HepG2 cells that were pre-incubated with compounds. Infected hepatocytes emit light due to the luciferase reaction. Assay results are presented as the percent inhibition of light emission compared to control. […]; assay type: functional; conditions: sporozoite, HEPG2TOX_HILL_SLOPE 11.4, HEPG2TOX_R_SQUARED 0.952, PBLUC_HILL_SLOPE 3.38, PBLUC_R_SQUARED 0.564, read-out: LUCIFERASE INFECTION ASSAY - IC50
Assay readout: IC50 (µM)

Record smiles	System tested	Assay readout	Readout number
O=[N+]([O-])c1ccc(-c2nnc(SCc3c(Cl)cccc3Cl)o2)o1	Plasmodium berghei	IC50	4.61

* * *

system: Plasmodium berghei; assay: Luciferase/luciferin-expressing antifolate-resistant parasites were used to infect a culture of HepG2 cells that were pre-incubated with compounds. Infected hepatocytes emit light due to the luciferase reaction. Assay results are presented as the percent inhibition of light emission compared to control. […]; assay type: functional; conditions: sporozoite, HEPG2TOX_HILL_SLOPE 7.08, HEPG2TOX_R_SQUARED 0.63, PBLUC_HILL_SLOPE 1.44, PBLUC_R_SQUARED 0.448, read-out: LUCIFERASE INFECTION ASSAY - IC50
Assay readout: IC50 (µM)

Record smiles	Unit string	Readout number
N=C(NOC(=O)Nc1cccc(C(F)(F)F)c1)c1ccc(Oc2c(Cl)cncc2Cl)cc1	µM	4.93

* * *

test system: Plasmodium berghei; assay: Luciferase/luciferin-expressing antifolate-resistant parasites were used to infect a culture of HepG2 cells that were pre-incubated with compounds. Infected hepatocytes emit light due to the luciferase reaction. Assay results are presented as the percent inhibition of light emission compared to control. […]; assay type: functional; settings: sporozoite, FFLUC_HILL_SLOPE 2.44, FFLUC_R_SQUARED 0.438, read-out: LUCIFERASE INFECTION ASSAY - IC50
pIC50: −log10 of the molar value.

Record smiles	pIC50
O=C(COC(=O)c1ccc2ccccc2c1)c1cc2c3c(c1)CC(=O)N3CCC2	< 5.00

* * *

tested on: Plasmodium berghei; assay: Luciferase/luciferin-expressing antifolate-resistant parasites were used to infect a culture of HepG2 cells that were pre-incubated with compounds. Infected hepatocytes emit light due to the luciferase reaction. Assay results are presented as the percent inhibition of light emission compared to control. […]; format: functional; settings: sporozoite, FFLUC_HILL_SLOPE 12.7, FFLUC_R_SQUARED 0.0579, HEPG2TOX_HILL_SLOPE 1.8, HEPG2TOX_R_SQUARED 0.871, PBLUC_HILL_SLOPE 2.85, PBLUC_R_SQUARED 0.299, read-out: LUCIFERASE INFECTION ASSAY - IC50
Assay readout: IC50

Record smiles	Assay readout	Result
O=C(NNC(=S)Nc1ccc(Cl)c(Cl)c1)c1cccn1-c1ccc(F)cc1	IC50	2.67 µM

* * *

system: Plasmodium berghei; assay: Luciferase/luciferin-expressing antifolate-resistant parasites were used to infect a culture of HepG2 cells that were pre-incubated with compounds. Infected hepatocytes emit light due to the luciferase reaction. Assay results are presented as the percent inhibition of light emission compared to control. […]; type: functional; conditions: sporozoite, read-out: LUCIFERASE INFECTION ASSAY - IC90
The molecules listed here are annotated with their IC90.
Assay readout: IC90

Molecule	Assay readout	Result
O=C(Nc1cc(C(F)(F)F)cc(C(F)(F)F)c1)Nc1cc(C(F)(F)F)cc(C(F)(F)F)c1	IC90	> 6.81 µM
NS(=O)(=O)c1ccc(Nc2nc(-c3ccc(Cl)s3)cs2)cc1	IC90	> 10 µM
Cc1nc(COc2ccc(Cl)cc2)sc1C(=O)OC(C)C(=O)N1CCCC1 (stereo unspecified)	IC90	> 10 µM
CCOC(=O)c1ccc2c(c1)nc(-c1ccc(Sc3ccc(C)cc3)c([N+](=O)[O-])c1)n2CC	IC90	> 10 µM
Cc1nc2ccccn2c1-c1ccnn1S(=O)(=O)c1ccc(F)cc1	IC90	3.78 µM
Cc1ccc(-c2cs/c(=N\c3ccc(C)c(C)c3)n2/N=C/c2ccc(O)cc2O)cc1	IC90	> 10 µM
Cc1cc(=O)n2nc(C(F)(F)F)n(CC(=O)Nc3ccc(Sc4ccc(C)c(C)c4)cc3)c2c1	IC90	> 10 µM
CC(C)Oc1cccc(-c2cn3c(-c4ccc(C(=O)NC5CC5)cc4)cnc3cn2)c1	IC90	7.18 µM
O=C(CCc1nc2ccccc2n(CCc2ccccc2)c1=O)N1CCC1	IC90	> 10 µM
CCOc1ccccc1NC(=O)C(c1ccccc1)N1CCC(n2c(=O)[nH]c3ccccc32)CC1 (stereo unspecified)	IC90	> 10 µM
O=C(Nc1ncccc1O)c1ccc(S(=O)(=O)NCc2ccco2)cc1	IC90	> 10 µM
CCCN(CCC(=O)Nc1cccc(Cl)c1)CC1CC1	IC90	> 11.2 µM
CC1C(OC(=O)c2ccc(CS(C)(=O)=O)cc2)CC2CC1C2(C)C (stereo unspecified)	IC90	> 10 µM
O=C(CCn1ccnn1)Nc1ccc(Sc2ccc(Br)cc2)cc1	IC90	> 10 µM
O=C(C(Sc1nc2cc(S(=O)(=O)N3CCCCC3)ccc2o1)c1ccccc1)N1CCCCC1 (stereo unspecified)	IC90	> 10 µM
CC(c1ccc(-c2ccccc2)c(F)c1)c1nn2c(-c3ccco3)nnc2s1 (stereo unspecified)	IC90	2.45 µM
COc1ccc(-c2nc3cnc(Nc4cccc(OC(F)(F)F)c4)cc3n2C)cc1OC	IC90	> 10 µM
CC(C)(C)c1cc(=O)n(-c2nc3ccc(Cl)cc3s2)[nH]1	IC90	> 10.7 µM
Cc1nc2ccccc2c(=O)n1-c1ccc(C(=O)NCCc2ccc3c(c2)OCCO3)cc1	IC90	> 10 µM
COc1cc2nc(NC(=O)c3[nH]c4c(c3C)C(=O)CCC4)sc2cc1OC	IC90	> 10 µM
CCN(CC)S(=O)(=O)c1cc(C(=O)Nc2nc3ccccc3[nH]2)n(C)c1	IC90	9.54 µM

* * *

tested on: Plasmodium berghei; assay: Luciferase/luciferin-expressing antifolate-resistant parasites were used to infect a culture of HepG2 cells that were pre-incubated with compounds. Infected hepatocytes emit light due to the luciferase reaction. Assay results are presented as the percent inhibition of light emission compared to control. […]; type: functional; conditions: sporozoite, PBLUC_HILL_SLOPE 0.644, PBLUC_R_SQUARED 0.0145, read-out: LUCIFERASE INFECTION ASSAY - IC50
pIC50: −log10 of the molar value.

Record smiles	pIC50
CCOC(=O)c1c(/C=C/C(=O)Nc2nc(C)cs2)c(C)n(CC)c1C	< 5.00

* * *

test system: Plasmodium berghei; test: Luciferase/luciferin-expressing antifolate-resistant parasites were used to infect a culture of HepG2 cells that were pre-incubated with compounds. Infected hepatocytes emit light due to the luciferase reaction. Assay results are presented as the percent inhibition of light emission compared to control. […]; format: functional; conditions: sporozoite, HEPG2TOX_HILL_SLOPE 1.98, HEPG2TOX_R_SQUARED 0.988, PBLUC_HILL_SLOPE 3.86, PBLUC_R_SQUARED 0.781, read-out: LUCIFERASE INFECTION ASSAY - IC50

Record smiles	IC50
O=C(Nc1ccc(-n2cnc3ccccc32)cc1)c1ccc(NC(=O)C2CC2)cc1	6.59 µM
